system.under.test: human A3 receptors (Homo sapiens, UniProt P0DMS8)
Construct: expressed in transfected cells; host or cells: HEK-293 cells (membranes)
Sequence (P0DMS8 whole entry): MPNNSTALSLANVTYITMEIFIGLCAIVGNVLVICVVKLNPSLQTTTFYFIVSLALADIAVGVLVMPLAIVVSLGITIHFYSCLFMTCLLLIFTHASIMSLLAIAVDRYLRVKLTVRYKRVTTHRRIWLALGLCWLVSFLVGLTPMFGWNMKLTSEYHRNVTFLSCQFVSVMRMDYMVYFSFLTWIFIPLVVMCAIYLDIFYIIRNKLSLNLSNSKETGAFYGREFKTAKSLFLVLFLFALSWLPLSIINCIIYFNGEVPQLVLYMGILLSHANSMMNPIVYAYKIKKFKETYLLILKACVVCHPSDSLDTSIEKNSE
test.description: radioligand binding, displacement of specific [125I]AB-MECA binding at human A3 receptors expressed in HEK-293 cells
details: read-out: Ki hA3
quantity: Ki

compound | obs.value
Nc1nc2ccc(Cl)cc2c2nc(-c3ccco3)nn12 [Compound 144, reference compound] | 13.8 nM

---

system.under.test: UniProtKB P25099
Sequence (P25099 1-326): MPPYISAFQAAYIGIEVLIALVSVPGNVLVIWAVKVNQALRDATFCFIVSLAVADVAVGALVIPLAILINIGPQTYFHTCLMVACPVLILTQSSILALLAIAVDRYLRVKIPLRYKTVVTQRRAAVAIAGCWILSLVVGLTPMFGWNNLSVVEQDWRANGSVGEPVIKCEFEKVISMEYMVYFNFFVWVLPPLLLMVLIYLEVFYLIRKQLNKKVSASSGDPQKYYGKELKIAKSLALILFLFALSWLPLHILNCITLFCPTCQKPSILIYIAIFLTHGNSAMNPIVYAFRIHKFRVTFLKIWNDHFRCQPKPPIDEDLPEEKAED
test.description: biochemical
Type: binding
details: Table 12; 10^-4 M; read-out: % inhibition rA1
Reported values of inhibition at 100 µM for individual entries
quantity: inhibition at 100 µM

compound | obs.value
CCOC(=O)C1=C(C)NC(c2ccccc2)=C(C(=O)OCc2cccc(I)c2)C1C#Cc1ccccc1 (stereo not shown) [Compound 122e] | 14%
CCOC(=O)C1=C(C)NC(c2ccccc2)=C(C(=O)OCc2cccc([N+](=O)[O-])c2)C1C#Cc1ccccc1 (racemic) [Compound 122f] | 28%
CCOC(=O)C1=C(C)NC(c2ccccc2)=C(C(=O)OCc2ccc(C(F)(F)F)cc2)C1C#Cc1ccccc1 (racemic) [Compound 122d] | 32%
CCOC(=O)C1=C(C)NC(c2ccccc2)=C(C(=O)OCC)C1C#Cc1cccc(C)c1 (racemic) | 41%
